Numbers sourced from ChEMBL document CHEMBL1961873.

biological target: SRSF protein kinase 1 (Homo sapiens) (UniProt Q96SB4); settings: at 0.1 µM;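 also: values are mean percent inhibition of SRPK1 kinase, measured in the GSK PKIS screening panel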
Sequence (Q96SB4 whole entry): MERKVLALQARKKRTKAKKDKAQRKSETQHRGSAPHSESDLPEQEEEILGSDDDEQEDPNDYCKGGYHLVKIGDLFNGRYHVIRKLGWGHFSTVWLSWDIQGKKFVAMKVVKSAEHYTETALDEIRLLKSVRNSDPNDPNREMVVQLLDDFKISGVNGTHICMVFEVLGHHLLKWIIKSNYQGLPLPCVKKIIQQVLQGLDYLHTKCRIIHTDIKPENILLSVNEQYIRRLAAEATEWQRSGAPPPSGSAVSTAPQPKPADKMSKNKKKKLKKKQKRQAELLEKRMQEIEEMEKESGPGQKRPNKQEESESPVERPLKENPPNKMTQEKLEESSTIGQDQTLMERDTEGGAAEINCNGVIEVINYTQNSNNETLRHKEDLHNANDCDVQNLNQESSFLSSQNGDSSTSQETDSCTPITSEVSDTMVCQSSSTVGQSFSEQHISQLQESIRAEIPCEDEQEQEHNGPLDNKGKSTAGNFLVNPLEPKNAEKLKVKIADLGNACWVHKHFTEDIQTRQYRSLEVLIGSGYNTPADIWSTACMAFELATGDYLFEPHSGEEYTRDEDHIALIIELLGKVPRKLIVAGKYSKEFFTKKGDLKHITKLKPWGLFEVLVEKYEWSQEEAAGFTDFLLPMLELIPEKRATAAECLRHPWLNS
measuredEndpoint: inhibition (%)
Give a bare numeral; the unit % is implied.

Sample records with inhibition:
chemicalStructure: ON=C1CCc2cc(-c3nc(C4CCNCC4)[nH]c3-c3ccncc3)ccc21
reading: -1.62
--
chemicalStructure: Nc1ccc(C#Cc2cncnc2Nc2ccc(OCc3cccc(F)c3)c(Cl)c2)cc1
reading: -1.42
--
chemicalStructure: CS(=O)(=O)CCNCc1nc(-c2ccc3ncnc(Nc4ccc(OCc5cccc(C(F)(F)F)c5)cc4)c3c2)cs1
reading: -2.46

Reported inhibition of Cc1ccc(Nc2ccnc(Nc3cccc(C(N)=O)c3)n2)cc1O : -1.01

Per the records, this compound ( Cc1ccc(O)cc1Nc1ccnc2ccc(S(C)(=O)=O)cc12 ) has inhibition equal to -0.84

Lab book: inhibition of Nc1nccc(-c2c(-c3ccc(F)cc3)ncn2CCCN2CCOCC2)n1 noted as -1.35
